Listed here are variants together with their documented abundance fitness.
B1: Kinesin-like protein KIF16B, residues 1213 to 1273; numbered along this chain, Q96L93 (parent)
chain: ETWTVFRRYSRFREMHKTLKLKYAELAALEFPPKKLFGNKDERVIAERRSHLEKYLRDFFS

variants of: B1; test: abundance fitness (aPCA) (normalised: wild type 0, dead -1); higher = more abundant; growth selection in yeast, the domain comes from the species named; conditions: Homo sapiens
// print number alone

>  <Mutation key>
L26C

>  <abundance fitness>
-0.047

$$$$
>  <Mutation key>
R57K

>  <abundance fitness>
-0.094

$$$$
>  <Mutation key>
N39Y

>  <abundance fitness>
-0.347

$$$$

// switching to the query variant
// E53Y : abundance fitness value = 0.329

Data credit: the Human Domainome abundance scans (Beltran et al. 2025)
